subjectOfTest: Phosphatidylinositol 4,5-bisphosphate 3-kinase catalytic subunit gamma isoform (Homo sapiens, UniProt P48736)
Sequence (P48736 whole entry, canonical isoform): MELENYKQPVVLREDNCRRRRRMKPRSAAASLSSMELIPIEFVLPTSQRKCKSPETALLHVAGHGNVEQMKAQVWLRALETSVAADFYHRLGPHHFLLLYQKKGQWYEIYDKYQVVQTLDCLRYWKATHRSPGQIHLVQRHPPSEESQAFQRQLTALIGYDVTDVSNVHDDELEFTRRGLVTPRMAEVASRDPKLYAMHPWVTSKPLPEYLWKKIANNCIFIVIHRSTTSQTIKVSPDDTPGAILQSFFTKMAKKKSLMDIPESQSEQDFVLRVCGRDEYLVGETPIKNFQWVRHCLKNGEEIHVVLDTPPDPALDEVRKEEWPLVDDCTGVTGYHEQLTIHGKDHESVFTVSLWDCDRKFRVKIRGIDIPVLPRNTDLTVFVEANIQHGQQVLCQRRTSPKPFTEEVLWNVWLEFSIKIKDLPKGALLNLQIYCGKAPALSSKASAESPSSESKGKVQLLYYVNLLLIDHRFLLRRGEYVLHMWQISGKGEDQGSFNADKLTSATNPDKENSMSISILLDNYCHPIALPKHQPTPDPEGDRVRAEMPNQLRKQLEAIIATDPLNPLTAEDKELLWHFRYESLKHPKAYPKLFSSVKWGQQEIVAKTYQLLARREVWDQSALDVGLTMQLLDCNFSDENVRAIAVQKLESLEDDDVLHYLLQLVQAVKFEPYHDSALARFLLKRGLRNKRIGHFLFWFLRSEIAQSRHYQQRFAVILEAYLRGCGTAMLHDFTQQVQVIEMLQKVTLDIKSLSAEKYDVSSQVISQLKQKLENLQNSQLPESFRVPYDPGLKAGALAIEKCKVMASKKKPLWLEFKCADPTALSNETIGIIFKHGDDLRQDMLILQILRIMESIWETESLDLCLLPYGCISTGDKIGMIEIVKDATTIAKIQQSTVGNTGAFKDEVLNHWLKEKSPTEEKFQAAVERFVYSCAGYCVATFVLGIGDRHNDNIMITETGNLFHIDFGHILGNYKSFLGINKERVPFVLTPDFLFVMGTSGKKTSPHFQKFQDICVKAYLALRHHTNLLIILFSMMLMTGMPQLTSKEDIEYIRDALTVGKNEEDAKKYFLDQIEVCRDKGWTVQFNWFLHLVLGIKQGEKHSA
testDetails: Inhibition of PI3Kgamma (unknown origin)
metricName: IC50

# input Tell me the measured IC50 of CCc1cc(Nc2nccc(-c3c(-c4ccc(OC)c(C(=O)Nc5c(F)cccc5F)c4)nc4ccccn34)n2)c(OC)cc1N1CCC(N2CCN(S(C)(=O)=O)CC2)CC1 , please.
# output > 10 µM

---

subjectOfTest: PAS domain-containing serine/threonine-protein kinase (Homo sapiens)
Sequence (Q96RG2 whole entry, the tested form may be a part): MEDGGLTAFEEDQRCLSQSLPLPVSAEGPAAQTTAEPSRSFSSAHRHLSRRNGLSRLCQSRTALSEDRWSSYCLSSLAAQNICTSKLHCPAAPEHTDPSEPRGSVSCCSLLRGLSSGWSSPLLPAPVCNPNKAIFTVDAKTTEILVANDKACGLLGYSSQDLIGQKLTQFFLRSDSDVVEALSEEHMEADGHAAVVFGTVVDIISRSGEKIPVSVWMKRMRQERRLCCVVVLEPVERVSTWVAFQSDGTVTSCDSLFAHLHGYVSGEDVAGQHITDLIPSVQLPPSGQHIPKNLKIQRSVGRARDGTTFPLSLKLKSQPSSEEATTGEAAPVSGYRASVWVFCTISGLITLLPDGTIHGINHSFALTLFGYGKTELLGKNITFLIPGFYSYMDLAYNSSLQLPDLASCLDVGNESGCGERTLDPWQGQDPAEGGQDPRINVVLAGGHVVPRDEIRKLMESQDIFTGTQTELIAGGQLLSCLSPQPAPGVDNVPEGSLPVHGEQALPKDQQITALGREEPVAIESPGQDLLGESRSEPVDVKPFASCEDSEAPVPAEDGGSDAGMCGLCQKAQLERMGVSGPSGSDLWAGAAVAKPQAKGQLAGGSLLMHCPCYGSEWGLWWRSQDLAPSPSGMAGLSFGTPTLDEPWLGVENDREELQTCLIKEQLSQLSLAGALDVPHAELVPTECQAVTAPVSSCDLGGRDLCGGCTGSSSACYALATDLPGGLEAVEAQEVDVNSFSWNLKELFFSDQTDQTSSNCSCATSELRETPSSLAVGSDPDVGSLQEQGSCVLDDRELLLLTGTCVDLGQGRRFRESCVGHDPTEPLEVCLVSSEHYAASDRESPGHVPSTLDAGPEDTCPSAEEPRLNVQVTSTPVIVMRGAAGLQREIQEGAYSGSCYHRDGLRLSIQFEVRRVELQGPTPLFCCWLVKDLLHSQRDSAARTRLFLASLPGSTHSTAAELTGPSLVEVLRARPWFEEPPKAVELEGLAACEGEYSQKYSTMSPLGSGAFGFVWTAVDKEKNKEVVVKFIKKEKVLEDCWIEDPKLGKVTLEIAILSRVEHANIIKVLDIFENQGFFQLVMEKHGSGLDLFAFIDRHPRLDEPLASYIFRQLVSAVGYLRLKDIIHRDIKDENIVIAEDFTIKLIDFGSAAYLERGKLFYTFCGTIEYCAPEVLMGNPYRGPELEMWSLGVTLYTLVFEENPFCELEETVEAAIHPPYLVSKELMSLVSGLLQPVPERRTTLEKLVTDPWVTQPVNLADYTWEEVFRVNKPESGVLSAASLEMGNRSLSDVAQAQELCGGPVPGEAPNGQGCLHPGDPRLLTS
metricName: pIC50
Quick note: pIC50 values are minus log10 of concentrations in mol/L.

# input Checklist item: pIC50 tested on PAS domain-containing serine/threonine-protein kinase (Homo sapiens), entry CCc1cc(Nc2nccc(-c3c(-c4ccc(OC)c(C(=O)Nc5c(F)cccc5F)c4)nc4ccccn34)n2)c(OC)cc1N1CCC(N2CCN(S(C)(=O)=O)CC2)CC1 , value?
# output 5.36

---

subjectOfTest: Tyrosine-protein kinase FRK (Homo sapiens)
Sequence (P42685 whole entry): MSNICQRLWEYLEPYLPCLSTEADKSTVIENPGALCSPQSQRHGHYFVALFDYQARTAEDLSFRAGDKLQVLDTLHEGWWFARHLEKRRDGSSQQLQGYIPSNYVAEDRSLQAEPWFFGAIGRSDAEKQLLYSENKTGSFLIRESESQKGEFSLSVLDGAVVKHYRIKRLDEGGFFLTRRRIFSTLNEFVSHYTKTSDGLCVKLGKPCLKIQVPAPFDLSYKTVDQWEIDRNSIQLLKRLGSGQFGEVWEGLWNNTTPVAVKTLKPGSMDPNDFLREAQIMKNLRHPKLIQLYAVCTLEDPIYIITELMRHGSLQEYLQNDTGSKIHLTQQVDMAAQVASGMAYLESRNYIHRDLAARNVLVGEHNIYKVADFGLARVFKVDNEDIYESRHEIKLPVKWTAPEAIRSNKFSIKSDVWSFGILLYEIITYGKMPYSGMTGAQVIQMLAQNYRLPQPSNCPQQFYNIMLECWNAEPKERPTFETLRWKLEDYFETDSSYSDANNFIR
testDetails: Inhibition of N-terminal 6His-tagged recombinant human PTK5 (218 to end residues) expressed in baculovirus infected Sf21 cells by filter binding assay
metricName: IC50
Number first, unit second: that is the form wanted.

# input Would you mind telling me what IC50 value was observed for CCc1cc(Nc2nccc(-c3c(-c4ccc(OC)c(C(=O)Nc5c(F)cccc5F)c4)nc4ccccn34)n2)c(OC)cc1N1CCC(N2CCN(S(C)(=O)=O)CC2)CC1 ?
# output 16 nM

---

subjectOfTest: Serine/threonine-protein kinase PAK 1 (Homo sapiens, UniProt Q13153)
Sequence (Q13153 whole entry): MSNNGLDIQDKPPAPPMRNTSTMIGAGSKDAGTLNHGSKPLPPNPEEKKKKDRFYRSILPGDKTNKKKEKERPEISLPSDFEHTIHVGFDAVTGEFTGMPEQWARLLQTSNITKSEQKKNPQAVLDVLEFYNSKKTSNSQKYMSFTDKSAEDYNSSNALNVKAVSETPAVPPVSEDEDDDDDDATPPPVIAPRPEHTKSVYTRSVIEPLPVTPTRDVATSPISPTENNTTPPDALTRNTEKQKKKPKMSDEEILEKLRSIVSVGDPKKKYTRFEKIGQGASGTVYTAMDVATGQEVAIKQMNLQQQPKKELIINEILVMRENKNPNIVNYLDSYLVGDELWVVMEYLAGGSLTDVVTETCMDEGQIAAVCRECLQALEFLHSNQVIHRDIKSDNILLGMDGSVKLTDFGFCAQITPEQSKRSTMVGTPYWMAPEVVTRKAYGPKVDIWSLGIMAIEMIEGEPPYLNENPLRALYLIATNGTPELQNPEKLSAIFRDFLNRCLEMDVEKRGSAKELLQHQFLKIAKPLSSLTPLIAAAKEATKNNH
pIC50: −log10 of the molar value.
metricName: pIC50

# input Reported pIC50 for Serine/threonine-protein kinase PAK 1 (Homo sapiens, UniProt Q13153), given CCc1cc(Nc2nccc(-c3c(-c4ccc(OC)c(C(=O)Nc5c(F)cccc5F)c4)nc4ccccn34)n2)c(OC)cc1N1CCC(N2CCN(S(C)(=O)=O)CC2)CC1 ?
# output < 5.00

---

subjectOfTest: RAC-beta serine/threonine-protein kinase (Homo sapiens, UniProt P31751)
Sequence (P31751 whole entry): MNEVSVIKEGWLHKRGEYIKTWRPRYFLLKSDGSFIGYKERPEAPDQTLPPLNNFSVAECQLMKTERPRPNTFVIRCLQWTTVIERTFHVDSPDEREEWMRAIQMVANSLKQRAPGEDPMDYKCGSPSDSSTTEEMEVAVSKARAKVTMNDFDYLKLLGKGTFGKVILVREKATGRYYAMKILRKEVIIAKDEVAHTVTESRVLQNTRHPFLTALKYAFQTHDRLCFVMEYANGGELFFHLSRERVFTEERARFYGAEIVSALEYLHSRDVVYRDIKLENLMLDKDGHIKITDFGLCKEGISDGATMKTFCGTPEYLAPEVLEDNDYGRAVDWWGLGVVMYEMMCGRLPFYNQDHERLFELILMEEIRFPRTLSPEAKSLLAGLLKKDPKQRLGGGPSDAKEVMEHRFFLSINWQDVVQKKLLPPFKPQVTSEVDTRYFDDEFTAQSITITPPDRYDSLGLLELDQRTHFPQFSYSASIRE
metricName: IC50

# input Request the reported IC50 associated with CCc1cc(Nc2nccc(-c3c(-c4ccc(OC)c(C(=O)Nc5c(F)cccc5F)c4)nc4ccccn34)n2)c(OC)cc1N1CCC(N2CCN(S(C)(=O)=O)CC2)CC1
# output > 10 µM

---

subjectOfTest: Serine/threonine-protein kinase PAK 3 (Homo sapiens)
Sequence (O75914 whole entry): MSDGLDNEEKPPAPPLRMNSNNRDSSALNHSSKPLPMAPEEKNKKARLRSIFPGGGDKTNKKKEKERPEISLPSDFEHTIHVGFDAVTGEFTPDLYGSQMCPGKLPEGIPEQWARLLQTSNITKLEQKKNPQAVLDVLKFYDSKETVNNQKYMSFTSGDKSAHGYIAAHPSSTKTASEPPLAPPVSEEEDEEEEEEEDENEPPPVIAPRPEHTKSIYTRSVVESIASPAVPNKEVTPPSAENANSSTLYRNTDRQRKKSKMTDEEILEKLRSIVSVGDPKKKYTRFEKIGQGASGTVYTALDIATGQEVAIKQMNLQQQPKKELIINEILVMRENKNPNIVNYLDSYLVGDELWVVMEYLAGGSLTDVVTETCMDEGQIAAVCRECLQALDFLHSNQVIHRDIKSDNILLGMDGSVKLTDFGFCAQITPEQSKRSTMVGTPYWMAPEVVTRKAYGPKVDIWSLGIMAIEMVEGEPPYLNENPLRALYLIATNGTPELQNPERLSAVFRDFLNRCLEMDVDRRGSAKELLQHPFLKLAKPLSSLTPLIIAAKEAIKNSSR
testDetails: Inhibition of C-terminal His6-tagged recombinant human full-length PAK3 expressed in baculovirus infected Sf21 cells by filter binding assay
metricName: IC50 (nM)
Just the number in nM, nothing appended.

# input Look at this compound and give its reported IC50. CCc1cc(Nc2nccc(-c3c(-c4ccc(OC)c(C(=O)Nc5c(F)cccc5F)c4)nc4ccccn34)n2)c(OC)cc1N1CCC(N2CCN(S(C)(=O)=O)CC2)CC1
# output 103

---

subjectOfTest: UniProt:P52333
Sequence (P52333 whole entry): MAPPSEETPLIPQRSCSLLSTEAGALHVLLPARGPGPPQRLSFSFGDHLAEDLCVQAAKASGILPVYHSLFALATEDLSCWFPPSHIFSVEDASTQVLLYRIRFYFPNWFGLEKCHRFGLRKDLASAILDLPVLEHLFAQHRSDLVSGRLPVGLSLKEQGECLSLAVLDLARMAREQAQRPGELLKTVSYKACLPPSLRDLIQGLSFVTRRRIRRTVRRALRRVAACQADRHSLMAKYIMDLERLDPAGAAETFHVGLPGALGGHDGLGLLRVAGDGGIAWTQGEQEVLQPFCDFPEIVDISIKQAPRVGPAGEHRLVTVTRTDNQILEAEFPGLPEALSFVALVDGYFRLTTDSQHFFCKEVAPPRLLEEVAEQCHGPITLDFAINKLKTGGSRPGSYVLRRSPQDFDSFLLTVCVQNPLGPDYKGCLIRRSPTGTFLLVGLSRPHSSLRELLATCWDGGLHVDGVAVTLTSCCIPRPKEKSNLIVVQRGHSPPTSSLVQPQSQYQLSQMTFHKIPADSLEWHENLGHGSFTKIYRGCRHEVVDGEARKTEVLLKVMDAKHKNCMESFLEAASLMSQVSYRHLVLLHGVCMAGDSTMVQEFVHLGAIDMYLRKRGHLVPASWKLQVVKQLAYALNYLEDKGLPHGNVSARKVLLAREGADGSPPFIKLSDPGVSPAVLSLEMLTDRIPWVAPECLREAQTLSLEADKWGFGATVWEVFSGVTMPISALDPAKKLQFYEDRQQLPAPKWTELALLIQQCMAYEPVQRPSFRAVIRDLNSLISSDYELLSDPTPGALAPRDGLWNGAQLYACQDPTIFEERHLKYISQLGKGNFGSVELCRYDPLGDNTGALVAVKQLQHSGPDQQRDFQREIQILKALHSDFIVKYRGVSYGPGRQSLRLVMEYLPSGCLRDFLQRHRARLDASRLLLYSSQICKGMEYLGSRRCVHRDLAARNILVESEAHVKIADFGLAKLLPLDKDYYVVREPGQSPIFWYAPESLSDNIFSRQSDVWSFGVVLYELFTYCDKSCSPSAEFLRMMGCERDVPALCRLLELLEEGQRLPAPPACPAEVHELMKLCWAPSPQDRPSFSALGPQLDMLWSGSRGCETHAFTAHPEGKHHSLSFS
metricName: IC50

# input Data request, read-out IC50, for CCc1cc(Nc2nccc(-c3c(-c4ccc(OC)c(C(=O)Nc5c(F)cccc5F)c4)nc4ccccn34)n2)c(OC)cc1N1CCC(N2CCN(S(C)(=O)=O)CC2)CC1
# output 13 µM
